Experiment: circular dichroism
Conditions: 10 mM phosphate buffer (captions say PBS); pH 7.4; 25 °C; 50 uM
Positions of bridges follow the written chain, without caps; N, C: chain ends. Non-standard residues stand in square brackets, D forms with d. Residues, ends and D or L forms follow the SMILES beside them. R5 = C=CCCC[C@@](C)(N)C(=O)O; S5 = C=CCCC[C@](C)(N)C(=O)O
Give helicity for every item shown.
Give the number; % is assumed, so skip it.

Could you tell me which helicity is on file for CC[C@H](C)[C@@H]1NC(=O)[C@](C)(NC(=O)[C@H](CCC(=O)O)NC(=O)[C@@H]2CCCN2C(C)=O)CCCC=CCCC[C@@](C)(C(=O)N[C@@H](CCC(=O)O)C(=O)N[C@@H](Cc2c[nH]cn2)C(=O)N[C@H](C(=O)N[C@@H](CCC(N)=O)C(=O)N[C@@H](CCCNC(=N)N)C(=O)N[C@H](C(=O)N[C@@H](CCSC)C(=O)N[C@@H](CCCCN)C(N)=O)C(C)C)C(C)C)NC(=O)[C@H](CC(C)C)NC1=O (Ac-PE[R5]IL[S5]EHVQRVMK-NH2; staple 3-6) ? 40

Which value of helicity has been reported for CC[C@H](C)[C@H](NC(=O)[C@H](CO)NC(=O)[C@H](CCC(=O)O)NC(=O)[C@@H]1CCCN1C(C)=O)C(=O)N[C@@H](CC(C)C)C(=O)N[C@@H](CC(=O)O)C(=O)N[C@@H](CCC(=O)O)C(=O)N[C@@H](Cc1c[nH]cn1)C(=O)N[C@]1(C)CCCC=CCCC[C@](C)(C(=O)N[C@@H](CCCCN)C(N)=O)NC(=O)[C@H](C(C)C)NC(=O)[C@H](CCCNC(=N)N)NC(=O)[C@H](CCC(N)=O)NC1=O (Ac-PESILDEH[R5]QRV[R5]K-NH2; staple 9-13) in the records? 35.4

* * *

Experiment: circular dichroism
Details: 10 mM phosphate buffer (captions say PBS); pH 7.4; 25 °C; 50 uM
Starred links: 1 amine or outer side, 2 acyl side, 3 side chain; linkers in the order of their positions; H or OH if unused. Positions of bridges follow the written chain, without caps; N, C: chain ends. Non-standard residues stand in square brackets, D forms with d. Residues, ends and D or L forms follow the SMILES beside them. X2 = CC(C)C[C@](CCCC=[*:3])(N[*:1])C(=O)[*:2]; X1 = CSCC[C@](CCCC=[*:3])(N[*:1])C(=O)[*:2]; X3 = O=C([C@@](CO)(CCCC=[*:3])N[*:1])[*:2]; X5 = C=CCCC[C@@](CC(C)C)(N[*:1])C(=O)[*:2]; X4 = C=CCCC[C@@](CCSC)(N[*:1])C(=O)[*:2]; R5 = C=CCCC[C@@](C)(N)C(=O)O; S5 = C=CCCC[C@](C)(N)C(=O)O
I would appreciate it if you labelled entries 1 when helicity is 40% or higher, otherwise -1.

Could you please find out whether CC[C@H](C)[C@H](NC(=O)[C@H](CO)NC(=O)[C@H](CCC(=O)O)NC(=O)[C@@H]1CCCN1C(C)=O)C(=O)N[C@]1(C)CCCC=CCCC[C@@](C)(C(=O)N[C@H](C(=O)N[C@@H](CCC(N)=O)C(=O)N[C@@H](CCCNC(=N)N)C(=O)N[C@H](C(=O)N[C@@H](CCSC)C(=O)N[C@@H](CCCCN)C(N)=O)C(C)C)C(C)C)NC(=O)[C@H](CCC(=O)O)NC(=O)[C@H](CC(=O)O)NC1=O (Ac-PESI[R5]DE[S5]VQRVMK-NH2; staple 5-8) has helicity that meets 40% or exceeds it? -1

Textbook exercise: given the entry CC[C@H](C)[C@H](NC(=O)[C@H](CO)NC(=O)[C@H](CCC(=O)O)NC(=O)[C@@H]1CCCN1C(C)=O)C(=O)N[C@@H](CC(C)C)C(=O)N[C@@H](CC(=O)O)C(=O)N[C@@H](CCC(=O)O)C(=O)N[C@@H](Cc1c[nH]cn1)C(=O)N[C@]1(C)CCCC=CCCC[C@](CCSC)(C(=O)N[C@@H](CCCCN)C(N)=O)NC(=O)[C@H](C(C)C)NC(=O)[C@H](CCCNC(=N)N)NC(=O)[C@H](CCC(N)=O)NC1=O [WNT-3a] (Ac-PESILDEH[R5]QRV[X1]K-NH2; staple 9-13) , state whether its helicity is greater than or equal to 40%. 1

Say whether C=CCCC[C@@](CC(C)C)(NC(=O)[C@@H](NC(=O)[C@H](CO)NC(=O)[C@H](CCC(=O)O)NC(=O)[C@@H]1CCCN1C(C)=O)[C@@H](C)CC)C(=O)N[C@@H](CC(=O)O)C(=O)N[C@@H](CCC(=O)O)C(=O)N[C@@H](Cc1c[nH]cn1)C(=O)N[C@](C)(CCCC=C)C(=O)N[C@@H](CCC(N)=O)C(=O)N[C@@H](CCCNC(=N)N)C(=O)N[C@H](C(=O)N[C@@H](CCSC)C(=O)N[C@@H](CCCCN)C(N)=O)C(C)C (Ac-PESI[X5]DEH[R5]QRVMK-NH2) shows helicity of 40% or more. -1

Say whether CC[C@H](C)[C@@H]1NC(=O)[C@](CO)(NC(=O)[C@H](CCC(=O)O)NC(=O)[C@@H]2CCCN2C(C)=O)CCCC=CCCC[C@](C)(C(=O)N[C@@H](Cc2c[nH]cn2)C(=O)N[C@H](C(=O)N[C@@H](CCC(N)=O)C(=O)N[C@@H](CCCNC(=N)N)C(=O)N[C@H](C(=O)N[C@@H](CCSC)C(=O)N[C@@H](CCCCN)C(N)=O)C(C)C)C(C)C)NC(=O)[C@H](CC(=O)O)NC(=O)[C@H](CC(C)C)NC1=O (Ac-PE[X3]ILD[R5]HVQRVMK-NH2; staple 3-7) shows helicity of 40% or more. -1

Determine whether this compound has helicity no lower than 40%: CC[C@H](C)[C@@H]1NC(=O)[C@](CO)(NC(=O)[C@H](CCC(=O)O)NC(=O)[C@@H]2CCCN2C(C)=O)CCCC=CCCC[C@@](C)(C(=O)N[C@@H](CCC(=O)O)C(=O)N[C@@H](Cc2c[nH]cn2)C(=O)N[C@H](C(=O)N[C@@H](CCC(N)=O)C(=O)N[C@@H](CCCNC(=N)N)C(=O)N[C@H](C(=O)N[C@@H](CCSC)C(=O)N[C@@H](CCCCN)C(N)=O)C(C)C)C(C)C)NC(=O)[C@H](CC(C)C)NC1=O (Ac-PE[X3]IL[S5]EHVQRVMK-NH2; staple 3-6) 1

Please check the record CC[C@H](C)[C@H](NC(=O)[C@H](CO)NC(=O)[C@H](CCC(=O)O)NC(=O)[C@@H]1CCCN1C(C)=O)C(=O)N[C@]1(CC(C)C)CCCC=CCCC[C@@](C)(C(=O)N[C@H](C(=O)N[C@@H](CCC(N)=O)C(=O)N[C@@H](CCCNC(=N)N)C(=O)N[C@H](C(=O)N[C@@H](CCSC)C(=O)N[C@@H](CCCCN)C(N)=O)C(C)C)C(C)C)NC(=O)[C@H](CCC(=O)O)NC(=O)[C@H](CC(=O)O)NC1=O [WNT-6a] (Ac-PESI[X2]DE[S5]VQRVMK-NH2; staple 5-8) and state if its helicity is at or above 40%. 1

For this compound, is measured helicity 40% or higher? C=CCCC[C@@](CCSC)(NC(=O)[C@@H](NC(=O)[C@H](CCCNC(=N)N)NC(=O)[C@](C)(CCCC=C)NC(=O)[C@@H](NC(=O)[C@H](Cc1c[nH]cn1)NC(=O)[C@H](CCC(=O)O)NC(=O)[C@H](CC(=O)O)NC(=O)[C@H](CC(C)C)NC(=O)[C@@H](NC(=O)[C@H](CO)NC(=O)[C@H](CCC(=O)O)NC(=O)[C@@H]1CCCN1C(C)=O)[C@@H](C)CC)C(C)C)C(C)C)C(=O)N[C@@H](CCCCN)C(N)=O (Ac-PESILDEHV[S5]RV[X4]K-NH2) 1

* * *

Assay: circular dichroism
Details: 10 mM phosphate buffer (captions say PBS); pH 7.4; 25 °C; 50 uM
Positions of bridges follow the written chain, without caps; N, C: chain ends. Non-standard residues stand in square brackets, D forms with d. Residues, ends and D or L forms follow the SMILES beside them. S5 = C=CCCC[C@](C)(N)C(=O)O
PROPERTY NAME: helicity (%)
Give the number; % is assumed, so skip it.

Quick one: helicity of CC[C@H](C)[C@H](NC(=O)[C@H](CO)NC(=O)[C@H](CCC(=O)O)NC(=O)[C@@H]1CCCN1C(C)=O)C(=O)N[C@@H](CC(C)C)C(=O)N[C@@H](CC(=O)O)C(=O)N[C@@H](CCC(=O)O)C(=O)N[C@@H](Cc1c[nH]cn1)C(=O)N[C@@]1(C)CCCC=CCCC[C@@](C)(C(=O)N[C@@H](CCCCN)C(N)=O)NC(=O)[C@H](C(C)C)NC(=O)[C@H](CCCNC(=N)N)NC(=O)[C@H](CCC(N)=O)NC1=O (Ac-PESILDEH[S5]QRV[S5]K-NH2; staple 9-13) ? 64.7
